Reported log10 of Km values for the following compounds.
Test system: rAmpC CNE-2 from C. neteri ATCC 33855
Format: biochemical
Details: Ki or Km,apparent; 200 µM nitrocefin reporter, 500 nM rAmpC; all standard deviations ≤15%
Kindly note that the scale is log10 and the underlying Km is in µM.

Exercise: What value of log10 of Km has been recorded for this entry: CC1(C)S[C@@H]2[C@H](NC(=O)[C@H](N)c3ccccc3)C(=O)N2[C@H]1C(=O)O
Key: 1.08

Exercise: Let us now turn to Cc1nnc(SCC2=C(C(=O)O)N3C(=O)[C@@H](NC(=O)Cn4cnnn4)[C@H]3SC2)s1
Key: 2.00

Exercise: And the next one, CC1(C)S[C@@H]2[C@H](NC(=O)Cc3ccccc3)C(=O)N2[C@H]1C(=O)O ?
Key: 1.04

Exercise: Entry CO[C@@]1(NC(=O)Cc2cccs2)C(=O)N2C(C(=O)O)=C(COC(N)=O)CS[C@@H]21 please
Key: 1.73

Exercise: Note, next up: CO/N=C(\C(=O)N[C@@H]1C(=O)N2C(C(=O)O)=C(COC(N)=O)CS[C@H]12)c1ccco1
Key: 0.60

Every entry's value here was drawn from paper PMC9952435.
